test system: UniProt:O00187
protocol: MASP-2 co-crystallization, X-ray crystallography and structure analysis (H-bonds, van der Waals contacts)
run parameters: Table A6-2 pharmacophore angle
Here the recorded a(O1, O2, N2) is given for each entry.
Lab note: jot the number down without any unit.

Notebook: Cc1nc(N)ccc1CNC(=O)[C@H](C)NC(=O)[C@H]1C[C@@H](Cc2ccccc2)CCN1 [compound 1353] , a(O1, O2, N2) read as 137.66

* * *

test system: MASP-2 CCP2-SP (Homo sapiens (Human), UniProt O00187)
Sequence (O00187 445-686): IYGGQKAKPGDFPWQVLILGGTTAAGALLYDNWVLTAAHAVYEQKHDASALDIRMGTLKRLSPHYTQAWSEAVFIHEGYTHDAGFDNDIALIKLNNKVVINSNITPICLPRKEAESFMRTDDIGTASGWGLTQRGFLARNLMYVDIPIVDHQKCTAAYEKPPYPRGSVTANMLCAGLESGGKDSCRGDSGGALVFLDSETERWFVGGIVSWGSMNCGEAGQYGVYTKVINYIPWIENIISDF
Sequence (O00187 364-432 partner): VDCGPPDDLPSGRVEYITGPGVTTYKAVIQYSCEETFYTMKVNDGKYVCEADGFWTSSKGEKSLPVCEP
protocol: MASP-2 co-crystallization, X-ray crystallography and structure analysis (H-bonds, van der Waals contacts)
run parameters: Table A2-13; MASP-2 TRP 655 O
Here the recorded van der Waals contact distance TRP 655 atom O is given for each entry.
Lab note: jot the number down without any unit.

Guide cases for van der Waals contact distance TRP 655 atom O, answers given:
{"compound": "C[C@H](NC(=O)[C@H](N)CCc1ccccc1)C(=O)NCc1ccc(C(=N)N)cc1 [compound 1024]", "test system": "MASP-2 CCP2-SP (Homo sapiens (Human), UniProt O00187)", "experimental value": 3.59}
{"compound": "C[C@H](NC(=O)C1C[C@@H](c2ccccc2)CCN1)C(=O)NCc1ccc(C(=N)N)cc1 (stereo in doubt) [compound 1063]", "test system": "MASP-2 CCP2-SP (Homo sapiens (Human), UniProt O00187)", "experimental value": 3.84}
{"compound": "N=C(N)c1ccc(CNC(=O)[C@@H]2CCN2C(=O)[C@H](NCC(=O)O)C2CCCCC2)cc1 [melagatran, reference compound]", "test system": "MASP-2 CCP2-SP (Homo sapiens (Human), UniProt O00187)", "experimental value": 3.39}
{"compound": "C[C@H](NC(=O)[C@H](N)CCc1cccc(Cl)c1)C(=O)NCc1ccc(C(=N)N)cc1 [compound 1081]", "test system": "MASP-2 CCP2-SP (Homo sapiens (Human), UniProt O00187)", "experimental value": 3.8}
{"compound": "C[C@H](NC(=O)[C@H]1C[C@@H](c2ccccc2)CN1)C(=O)NCc1ccc(C(=N)N)cc1 [compound 1037]", "test system": "MASP-2 CCP2-SP (Homo sapiens (Human), UniProt O00187)", "experimental value": 3.25}
{"compound": "C[C@H](NC(=O)[C@H](N)C1Cc2ccccc2C1)C(=O)NCc1ccc2nc(N)[nH]c2c1 [compound 1059]", "test system": "MASP-2 CCP2-SP (Homo sapiens (Human), UniProt O00187)", "experimental value": 3.88}

# evaluate next
Notebook: N=C(N)c1ccc(CNC(=O)[C@@H]2CCN2C(=O)[C@H]2Cc3ccccc3CN2)cc1 [compound 1034] , van der Waals contact distance TRP 655 atom O read as 3.77

* * *

Here the recorded van der Waals contact distance, MASP-2 HIS 483 atom CD2 is given for each entry.
test system: MASP-2 CCP2-SP (Homo sapiens (Human), UniProt O00187)
protocol: MASP-2 co-crystallization, X-ray crystallography and structure analysis (H-bonds, van der Waals contacts)
Parameters: unit not given beside the values
run parameters: Table A2-1
Excerpt: This example illustrates the preparation of recombinant MASP-2 protein, based on UniProt O00187, human mannan-binding lectin serine protease 2. Expression constructs for human MASP-2 CCP2-SP and CCP2-SP-6HIS were generated for recombinant expression in E. coli cells. […]
Where a name gives a salt, the structure may show the parent alone.
Lab note: jot the number down without any unit.

Guide cases for van der Waals contact distance, MASP-2 HIS 483 atom CD2, answers given:
{"compound": "CC(=O)Nc1ccc(CCN[C@H](CCc2ccccc2)C(=O)N[C@@H](C)C(=O)NCc2ccc(C(=N)N)cc2)cc1", "test system": "MASP-2 CCP2-SP (Homo sapiens (Human), UniProt O00187)", "experimental value": 3.69}
{"compound": "C[C@H](NC(=O)[C@H]1C[C@H](Cc2ccccc2)CN1)C(=O)NCc1cnc2c(c1)c(Cl)cn2C [compound 1450, Dihydrochloride]", "test system": "MASP-2 CCP2-SP (Homo sapiens (Human), UniProt O00187)", "experimental value": 3.9}
{"compound": "C[C@H](NC(=O)[C@@H](CCc1ccccc1)NCc1ccc(N2CCOCC2)cc1)C(=O)NCc1ccc(C(=N)N)cc1", "test system": "MASP-2 CCP2-SP (Homo sapiens (Human), UniProt O00187)", "experimental value": 3.81}

Notebook: Cc1nc(N)ccc1CNC(=O)C(C)NC(=O)[C@H]1C[C@H](c2cccc(-c3ccccc3)c2)CN1 (stereo in doubt) , van der Waals contact distance, MASP-2 HIS 483 atom CD2 read as 3.76

Notebook: Cc1nc(N)ccc1CNC(=O)[C@H](C)NC(=O)[C@H]1C[C@@H](c2ccccc2)CCN1C , van der Waals contact distance, MASP-2 HIS 483 atom CD2 read as 3.74

Notebook: Cc1nc(N)ccc1CNC(=O)[C@H](C)NC(=O)[C@H]1C[C@H](Cc2cc(-c3ccccc3)cs2)CN1 [compound 1399, Dihydrochloride] , van der Waals contact distance, MASP-2 HIS 483 atom CD2 read as 3.72

Notebook: C[C@H](NC(=O)[C@H]1C[C@H](c2ccccc2)CN1)C(=O)NCc1ccc2c(N)nccc2c1 , van der Waals contact distance, MASP-2 HIS 483 atom CD2 read as 3.74
